Measured values drawn from the supplement of paper PMC9112550 for this set.

system: Escherichia coli TOP10; assay: shrunken log2 fold change of peptide-encoding DNA abundance (4.5 h post-induction vs induction); higher = less antimicrobial activity (less host growth inhibition); conditions: time post-induction: 4.5 h; library: site-saturation at positions 5, 18, 19, 20
Measured shrunken log2 fold change, listed per entry for reference.
Reply briefly: the number, and no unit.

Reference set, count: 5
residue_sequence: RRIRWRPPRLPRPRPRPPCIPRP
measured_result: 0.0939

residue_sequence: RRIRGRPPRLPRPRPRPYHLPRP
measured_result: -1.27

residue_sequence: RRIRSRPPRLPRPRPRPPVFPRP
measured_result: 0.368

residue_sequence: RRIRSRPPRLPRPRPRPGWQPRP
measured_result: -0.339

residue_sequence: RRIRARPPRLPRPRPRPHIKPRP
measured_result: -0.388

Exam item: Give its shrunken log2 fold change value. Item: RRIRQRPPRLPRPRPRPALWPRP
Marked response: 0.144

Exam item: Give its shrunken log2 fold change value. Item: RRIRARPPRLPRPRPRPSIYPRP
Marked response: -0.404

Exam item: Give its shrunken log2 fold change value. Item: RRIRERPPRLPRPRPRPMHFPRP
Marked response: -0.163

Exam item: Give its shrunken log2 fold change value. Item: RRIRMRPPRLPRPRPRPMPIPRP
Marked response: 0.0625

Exam item: Give its shrunken log2 fold change value. Item: RRIRFRPPRLPRPRPRPSWEPRP
Marked response: -0.0476

Exam item: Give its shrunken log2 fold change value. Item: RRIRNRPPRLPRPRPRPKYQPRP
Marked response: -0.0997

###

test system: Escherichia coli TOP10; assay: shrunken log2 fold change of peptide-encoding DNA abundance (4.5 h post-induction vs induction); higher = less antimicrobial activity (less host growth inhibition); details: time post-induction: 4.5 h; library: site-saturation at positions 5, 18, 19, 20
param class (str): category from shrunken log2 fold change; see ranges range 1 = under -0.2, range 2 = from -0.2 up to 0.2, range 3 = 0.2 and over

residue_sequence: RRIRHRPPRLPRPRPRPLDDPRP
category_label: range 2

residue_sequence: RRIRQRPPRLPRPRPRPPWYPRP
category_label: range 1

residue_sequence: RRIRLRPPRLPRPRPRPCHTPRP
category_label: range 2

residue_sequence: RRIRARPPRLPRPRPRPEGLPRP
category_label: range 3

residue_sequence: RRIRGRPPRLPRPRPRPVSFPRP
category_label: range 3

Exam item: Which category fits this record: RRIRNRPPRLPRPRPRPTRMPRP
Marked response: range 3

###

test system: Escherichia coli TOP10; assay: shrunken log2 fold change of peptide-encoding DNA abundance (4.5 h post-induction vs induction); higher = less antimicrobial activity (less host growth inhibition); conditions: time post-induction: 4.5 h; library: site-saturation at positions 5, 18, 19, 20
Measured shrunken log2 fold change, listed per entry for reference.
Reply briefly: the number, and no unit.

residue_sequence: RRIRCRPPRLPRPRPRPFVEPRP
target_of_assay: Escherichia coli TOP10
measured_result: -0.507

residue_sequence: RRIRMRPPRLPRPRPRPRVVPRP
target_of_assay: Escherichia coli TOP10
measured_result: 0.246

residue_sequence: RRIRKRPPRLPRPRPRPWGCPRP
target_of_assay: Escherichia coli TOP10
measured_result: 0.131

residue_sequence: RRIRVRPPRLPRPRPRPMQIPRP
target_of_assay: Escherichia coli TOP10
measured_result: -0.0185

residue_sequence: RRIRRRPPRLPRPRPRPPKFPRP
target_of_assay: Escherichia coli TOP10
measured_result: 0.298

residue_sequence: RRIRIRPPRLPRPRPRPVGPPRP
target_of_assay: Escherichia coli TOP10
measured_result: 0.0747

residue_sequence: RRIRRRPPRLPRPRPRPKCTPRP
target_of_assay: Escherichia coli TOP10
measured_result: -0.373

residue_sequence: RRIRPRPPRLPRPRPRPEYIPRP
target_of_assay: Escherichia coli TOP10
measured_result: -0.0411

residue_sequence: RRIRIRPPRLPRPRPRPNDLPRP
target_of_assay: Escherichia coli TOP10
measured_result: -0.16

residue_sequence: RRIRRRPPRLPRPRPRPGFLPRP
target_of_assay: Escherichia coli TOP10;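 note: peptides expressed intracellularly from a pBAD plasmid library in pooled LB shake-flask culture, induced with 0.3% L-arabinose, DNA abundance read by NGS, three biological replicates, DESeq2 with apeglm shrinkage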
measured_result: -0.0551

Exam item: Give its shrunken log2 fold change value. Item: RRIRRRPPRLPRPRPRPPGLPRP
Marked response: 0.658

Exam item: Give its shrunken log2 fold change value. Item: RRIRPRPPRLPRPRPRPELCPRP
Marked response: 0.277

Exam item: Give its shrunken log2 fold change value. Item: RRIRWRPPRLPRPRPRPGCHPRP
Marked response: 0.253

Exam item: Give its shrunken log2 fold change value. Item: RRIRSRPPRLPRPRPRPMWQPRP
Marked response: -0.175

Exam item: Give its shrunken log2 fold change value. Item: RRIRSRPPRLPRPRPRPKWPPRP
Marked response: 0.146
